Reported activity change, less the hit threshold values for the following compounds.
- system_tested: Potassium voltage-gated channel subfamily KQT member 2 (Rattus norvegicus) (UniProt O88943)
- Sequence (O88943 whole entry, looked up): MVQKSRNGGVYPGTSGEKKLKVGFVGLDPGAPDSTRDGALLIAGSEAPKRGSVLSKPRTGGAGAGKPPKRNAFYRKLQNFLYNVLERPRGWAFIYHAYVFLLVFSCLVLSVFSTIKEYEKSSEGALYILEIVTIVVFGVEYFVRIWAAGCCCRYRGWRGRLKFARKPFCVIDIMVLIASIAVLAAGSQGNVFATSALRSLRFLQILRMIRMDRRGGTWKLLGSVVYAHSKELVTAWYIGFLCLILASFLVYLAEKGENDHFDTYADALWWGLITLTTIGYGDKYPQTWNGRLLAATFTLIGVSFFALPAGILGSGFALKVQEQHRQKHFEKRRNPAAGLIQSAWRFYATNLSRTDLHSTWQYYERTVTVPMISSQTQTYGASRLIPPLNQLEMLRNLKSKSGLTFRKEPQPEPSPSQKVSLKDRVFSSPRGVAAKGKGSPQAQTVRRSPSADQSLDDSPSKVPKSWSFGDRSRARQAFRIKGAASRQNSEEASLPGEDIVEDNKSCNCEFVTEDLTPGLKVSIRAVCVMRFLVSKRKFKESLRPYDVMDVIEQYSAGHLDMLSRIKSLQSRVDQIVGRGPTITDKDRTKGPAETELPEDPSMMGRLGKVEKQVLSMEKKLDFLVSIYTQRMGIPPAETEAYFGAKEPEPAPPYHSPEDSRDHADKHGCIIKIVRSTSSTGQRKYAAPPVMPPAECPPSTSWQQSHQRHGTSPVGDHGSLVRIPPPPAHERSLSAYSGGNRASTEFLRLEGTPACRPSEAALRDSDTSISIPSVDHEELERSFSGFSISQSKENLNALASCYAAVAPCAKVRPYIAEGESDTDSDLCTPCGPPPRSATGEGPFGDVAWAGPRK
- assay_comment: KCNQ2 potentiation in CHO cells – cell-based, FluxOR thallium flux, counter-screen for hERG block protector project, confirmation (AID 1942);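 further: normalized value minus buffer-control mean plus three SD of buffer wells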
- reported_conditions: FluxOR thallium flux fluorescence, at 10 µM, hits give high values
Screen size: about 2,400 compounds; about 580 (24%) were called active. A selection follows.

> print(dat)
                                   compound                             readout.name    observed.result
1  C/C(=N/NC(=S)Nc1cccc(C)c1)c1cccc([N+](=O)[O-])c1  activity change, less the hit threshold  -13.2% (inactive)
2  O=c1c2ccc(Cl)cc2nc(-c2cccc(C(F)(F)F)c2)n1O  activity change, less the hit threshold      118% (active)
3       COCCCn1c(=S)[nH]c2c(sc3ccccc32)c1=O  activity change, less the hit threshold  -11.4% (inactive)
4  COCCn1c(=S)[nH]c2sc3c(c2c1=O)CCC(C)C3 (stereo unspecified)  activity change, less the hit threshold     51.5% (active)

activity change, less the hit threshold reading for C/C(=N\Nc1nc(C)c(C)s1)c1ccc([N+](=O)[O-])cc1 : 17% (active)

For record O=c1c2cc(Br)ccc2nc(-c2ccccc2)n1O the listed activity change, less the hit threshold is 36.9% (active)

###

- system_tested: Potassium voltage-gated channel subfamily KQT member 2 (Rattus norvegicus)
- assay_comment: KCNQ2 potentiation in CHO cells – cell-based, FluxOR thallium flux, counter-screen for hERG block protector project, confirmation (AID 1942);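 further: normalized value minus buffer-control mean plus three SD of buffer wells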
- reported_conditions: FluxOR thallium flux fluorescence, at 10 µM, hits give high values
The campaign covered roughly 2,400 compounds. About 580 (24%) were called active. A selection follows.
# if value of activity change, less the hit threshold reaches -20%, tag fulfilled; if it stays below, tag not fulfilled

Reported activity change, less the hit threshold reaches at least -20% for O=C1CC(C(=O)N2CCOCC2)C2(CCCCC2)O1 (stereo unspecified) ?
not fulfilled

Kindly determine if activity change, less the hit threshold recorded for COc1ccc(NC(=O)C(=O)NNC(=O)c2ccc(Cl)cc2Cl)cc1 is above or exactly -20%.
fulfilled

// inclusive: activity change, less the hit threshold at least -20%? input: CCCN1Cc2cccc(C(=O)NCc3cccs3)c2C1=O
not fulfilled

Is activity change, less the hit threshold at least -20%? Consider Cc1ccc([N+](=O)[O-])c2c1C(N1CC(C)OC(C)C1)C(C)(C)O2 (stereo unspecified)
fulfilled

Does activity change, less the hit threshold meet or surpass -20% for O=c1c2ccccc2[nH]c(=S)n1C1CCCCC1 ?
fulfilled

###

Measured activity change, less the hit threshold by item
- system_tested: Potassium voltage-gated channel subfamily KQT member 2 (Rattus norvegicus) (UniProt O88943)
- assay_comment: KCNQ2 potentiation in CHO cells – cell-based, FluxOR thallium flux, counter-screen for hERG block protector project, confirmation (AID 1942);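 further: normalized value minus buffer-control mean plus three SD of buffer wells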
- reported_conditions: FluxOR thallium flux fluorescence, at 10 µM, hits give high values
Out of some 2,400 compounds screened, about 580 (24%) were called active. The list is a sample of the results.
Response body: numeric value in %, unit text excluded.

As a guide, the following entries are already answered.
> print(dat)
                                   molecule  observed.result
1  CC(C)=CCCC1=CCC2C(=O)NNC(=O)C2C1 (stereo not given)            -15.8
2   CCc1ccc2c(c1)c(N=NC1=NC(=O)CS1)c(O)n2CC             26.5
3                Clc1ccc(Nc2nc3cccnc3s2)cc1            -20.7
4  CC(C)C(NC(=O)c1ccccc1)C(=O)N/N=C\c1ccco1 (stereo not given)            -20.2
5      COc1ccccc1C(=O)NNC(=O)C(=O)NC1CCCCC1             49.7

Record summary for CC(C)(C)OC(=O)N1CCC2(CC1)Oc1ccc(Cl)cc1C(=O)C21CC(c2ccc(Cl)cc2)=NO1 (stereo not given) : reported activity change, less the hit threshold = -20.7

###

- system_tested: Potassium voltage-gated channel subfamily KQT member 2 (Rattus norvegicus)
- assay_comment: KCNQ2 potentiation in CHO cells – cell-based, FluxOR thallium flux, counter-screen for hERG block protector project, confirmation (AID 1942);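 further: normalized value minus buffer-control mean plus three SD of buffer wells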
- reported_conditions: FluxOR thallium flux fluorescence, at 10 µM, hits give high values
Screen size: about 2,400 compounds; about 580 (24%) were called active. Not all results are given here.
Here, each record is paired with measured activity change, less the hit threshold data.
Your answer is read as %, so omit the unit and give the number.

> print(dat)
                                   compound                             system.tested  observed.result
1  O=C(O)c1c2c(nc3ccccc13)/C(=C/c1cccc([N+](=O)[O-])c1)CCC2  Potassium voltage-gated channel subfamily KQT member 2 (Rattus norvegicus)              -21

Lookup result for O=c1[nH]n2c(=O)c3c([nH]c2c1N=Nc1ccccc1)CCC3 ; measured activity change, less the hit threshold: -11.6

Record O=C(O)COc1ccc(NC(=O)c2ccc3c(c2)C(=O)N(C2CCCCC2)C3=O)cc1 . Reported activity change, less the hit threshold: -6.7

The compound identified as C=CCNc1sc(C(=O)C(C)(C)C)c(N)c1C#N registered its activity change, less the hit threshold at -15.5

Just so you know, measured activity change, less the hit threshold for COc1cc(Br)cc(/C=N/NC(=O)Cc2ccccc2)c1O came out at -9.1

Documented activity change, less the hit threshold of COc1cc(Br)cc(C=Nc2cccc(C(F)(F)F)c2)c1O : 5.7

###

- system_tested: Potassium voltage-gated channel subfamily KQT member 2 (Rattus norvegicus) (UniProt O88943)
- assay_comment: KCNQ2 potentiation in CHO cells – cell-based, FluxOR thallium flux, counter-screen for hERG block protector project, confirmation (AID 1942);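 further: normalized value minus buffer-control mean plus three SD of buffer wells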
- reported_conditions: FluxOR thallium flux fluorescence, at 10 µM, hits give high values
The campaign covered roughly 2,400 compounds. About 580 (24%) were called active. The list is a sample of the results.
Tick TRUE if activity change, less the hit threshold is -20% or greater. Tick FALSE if activity change, less the hit threshold is less than -20%.

Would you say CCOC(=O)C1=NN(C(=O)c2ccccc2)C(O)(c2ccc(C)cc2)C1 (configuration not stated) shows activity change, less the hit threshold at minimum -20%?
TRUE

Can Cc1csc(NC(=O)c2cn3ccccc3n2)n1 be said to have activity change, less the hit threshold at or above -20%?
TRUE

Test whether the molecule CC1(OC(=O)C2CCCC2)C(=O)C=C2C=C(c3ccc(C#N)cc3)OC=C2C1=O (configuration not stated) records activity change, less the hit threshold of -20% or higher.
TRUE

Does O=C(/C=C/c1ccccc1)c1cc(Br)ccc(=O)c1O have a reported activity change, less the hit threshold of at least -20%?
TRUE

Could you verify whether the entry CCOC(=O)C1=NN(C(=O)c2ccc(C)cc2)C(O)(c2ccc(Cl)cc2)C1 (configuration not stated) shows activity change, less the hit threshold of no less than -20%?
TRUE

Please tell me: is the molecule COc1cc(/C=C/C(=O)O)ccc1OS(=O)(=O)c1cc(C)ccc1C at or over -20% in terms of activity change, less the hit threshold?
TRUE

Quick check: does COc1ccc(C(=O)NCc2nnc(SCC(=O)NC3CCCCC3)n2C)cc1 have activity change, less the hit threshold greater than or equal to -20%?
FALSE

Has CCOC(=O)CN1N=C(/C=C/c2ccc(OC)cc2)CCC1=O a recorded activity change, less the hit threshold greater than or equal to -20%?
TRUE

Check the entry COC(=O)Cc1[nH]n(-c2nc3ccccc3s2)c(=O)c1C(C)=Nc1ccc(C)cc1 : does activity change, less the hit threshold equal or exceed -20%?
TRUE

Is reported activity change, less the hit threshold greater than or equal to -20% here: Cc1nc(-c2nc(-c3c(C(=O)NNC(=O)c4ccc(Cl)cc4)noc3C)cs2)cs1
TRUE

Exam item: decide whether the reported activity change, less the hit threshold for CC(C)(C)c1csc(NNC(=O)c2ccc(Cl)cc2)n1 is at least -20%.
TRUE

# bool: activity change, less the hit threshold of COc1cc(/C=C/C(=O)N[C@@H](Cc2c[nH]c3ccccc23)C(=O)O)ccc1O >= -20%
TRUE

Determine whether this molecule has activity change, less the hit threshold no lower than -20%: Cc1ccc(C)c(NC(=O)CCN2C(=O)[C@@H]3Cc4ccccc4CN3C2=O)c1
FALSE

Exam item: decide whether the reported activity change, less the hit threshold for Cc1cccc(/C=C/C(=O)c2cc(Br)ccc(=O)c2O)c1 is at least -20%.
TRUE

// inclusive: activity change, less the hit threshold at least -20%? input: CN(C)S(=O)(=O)c1cc(NC2CC(=O)N(c3ccc(F)cc3)C2=O)ccc1Cl (configuration not stated)
TRUE

// inclusive: activity change, less the hit threshold at least -20%? input: Cc1csc(NC(=O)c2cc3c(s2)CCCC3)n1
TRUE
